// provenance: patent US11470846B2

# Control of weed species, AVEFA (damage score) listing for each entry below
# Tested on: Avena fatua (AVEFA)
# Assay Details: Post-emergence herbicidal activity
# Assay type: in vivo
# Condition Label: post-emergence application, 1000 g/Ha, evaluated after 13 days, scale 0-5

-- ask Notebook: pull reported Control of weed species, AVEFA (damage score) for Avena fatua (AVEFA), entry Cc1nc(-c2cncc(F)c2)sc1N1CCOC1=O [Compound A38]
-- reply 4

-- ask Again, but for COc1cncc(-c2nc(C)c(N(C)C(=O)OC(C)(C)C)s2)c1 [Compound A6]
-- reply 2

* * *

# System: Oryza sativa (ORYSA)
# Assay Details: Post-emergence herbicidal activity
# Assay type: in vivo
# Condition Label: post-emergence application, 1000 g/Ha, evaluated after 13 days, scale 0-5
Reported Metric: Control of weed species, ORYSA (damage score)
# output: bare number, no unit

Some compounds with recorded Control of weed species, ORYSA (damage score):
Cc1nc(-c2cncc(F)c2)sc1NC(=O)OC(C)(C)C [Compound A35] | 0
CCN(C(=O)OC(C)(C)C)c1sc(-c2cccnc2)nc1C [Compound A17] | 2
COC(=O)N(C)c1sc(-c2cccnc2)nc1C [Compound A18] | 0
CN(C(=O)OC(C)(C)C)c1sc(-c2cccnc2)nc1Br [Compound A30] | 1
Cc1nc(-c2cncc(C(F)(F)F)c2)sc1N(C)C(=O)OC(C)(C)C [Compound A10] | 1

-- ask Could you share which Control of weed species, ORYSA (damage score) value was measured for Cc1nc(-c2cncc(C(N)=O)c2)sc1N(C)C(=O)OC(C)(C)C [Compound A8] ?
-- reply 1

-- ask Now this one: Cc1nc(-c2cncc(F)c2)sc1N1CCOC1=O [Compound A38]
-- reply 0

-- ask And CN(C(=O)OC(C)(C)C)c1sc(-c2cccnc2)nc1Cl [Compound A29] ?
-- reply 1

-- ask Same thing, different compound: CN(C(=O)OC(C)(C)C)c1sc(-c2cncc(F)c2)nc1I [Compound A52]
-- reply 0

-- ask Similarly, Cc1nc(-c2cccnc2)sc1N(C)C(=O)SC(C)(C)C [Compound A22] ?
-- reply 0

* * *

// reported Control of weed species, ECHCG (damage score) for each item listed
# Test system: Echinochloa crus-galli (ECHCG)
# Assay Details: Pre-emergence herbicidal activity
# Assay type: in vivo
# Condition Label: pre-emergence application, 1000 g/Ha, evaluated after 13 days, scale 0-5; Table 5

Before answering, review these 4 worked examples.
CN(C(=O)OC(C)(C)C)c1sc(-c2cncc(F)c2)nc1C(F)(F)F | 4
CN(C(=O)OC(C)(C)C)c1sc(-c2cccnc2)nc1F | 2
CN(C(=O)OC(C)(C)C)c1sc(-c2cncc(F)c2)nc1I | 2
Cc1nc(-c2cccnc2)sc1N(C)C(=O)NC(C)(C)C | 5

Note: attention shifts to another entry.
-- ask For the compound shown here, Cc1nc(-c2cccnc2)sc1N(C)C(=O)SC(C)(C)C , give the reported Control of weed species, ECHCG (damage score).
-- reply 0

* * *

# Test system: Echinochloa crus-galli (ECHCG)
# Assay Details: Pre-emergence herbicidal activity
# Type: in vivo
# Condition Label: pre-emergence application, 1000 g/Ha, evaluated after 13 days, scale 0-5; Table 5
Reported Metric: Control of weed species, ECHCG (damage score)
# answer = number (no unit)

Reference set, count: 3
CN(C(=O)OC(C)(C)C)c1sc(-c2cccnc2)nc1Br | 4
Cc1nc(-c2cccnc2)sc1N(C)C(=O)OC(C)(C)C | 4
CN(C(=O)OC(C)(C)C)c1sc(-c2cccnc2)nc1C(F)(F)F | 4

-- ask Given CN(C(=O)OC(C)(C)C)c1sc(-c2cncc(Cl)c2)nc1C(F)(F)F , state its recorded Control of weed species, ECHCG (damage score).
-- reply 2

-- ask Check CN(C(=O)OC(C)(C)C)c1sc(-c2cccnc2)nc1I too.
-- reply 3

-- ask How about this compound: Cc1nc(-c2cncc(F)c2)sc1N1CCOC1=O
-- reply 5

-- ask Check COc1cncc(-c2nc(C(F)(F)F)c(N(C)C(=O)OC(C)(C)C)s2)c1 too.
-- reply 3

-- ask Note, next up: Cc1nc(-c2cncc(N)c2)sc1N(C)C(=O)OC(C)(C)C
-- reply 2

-- ask Also, Cc1nc(-c2cncc(S(C)(=O)=O)c2)sc1N(C)C(=O)OC(C)(C)C please.
-- reply 0

* * *

# System: Lolium perenne (LOLPE)
# Assay Details: Pre-emergence herbicidal activity
# Assay type: in vivo
# Condition Label: pre-emergence application, 1000 g/Ha, evaluated after 13 days, scale 0-5; Table 5
Reported Metric: Control of weed species, LOLPE (damage score)
API doc: respond with a numeric literal and nothing else, no unit.

Worked set:
CN(C(=O)OC(C)(C)C)c1sc(-c2cncc(Cl)c2)nc1C(F)(F)F [Compound A27] | 2
COc1cncc(-c2nc(C)c(N(C)C(=O)OC(C)(C)C)s2)c1 [Compound A6] | 1
CN(C(=O)OC(C)(C)C)c1sc(-c2cncc(F)c2)nc1C(F)(F)F [Compound A24] | 3

-- ask Record lookup: for Lolium perenne (LOLPE), what Control of weed species, LOLPE (damage score) belongs to Cc1nc(-c2cccnc2)sc1N(C)C(=O)OC(C)(C)C [Compound A1] ?
-- reply 2

-- ask COC(=O)N(C)c1sc(-c2cccnc2)nc1C [Compound A18] , same question.
-- reply 2

-- ask Moving on to the next compound: CN(C(=O)OC(C)(C)C)c1sc(-c2cccnc2)nc1Cl [Compound A29]
-- reply 2

-- ask Consider next the compound Cc1nc(-c2cncc(S(C)(=O)=O)c2)sc1N(C)C(=O)OC(C)(C)C [Compound A9] in the same way.
-- reply 0

-- ask Do the same for Cc1nc(-c2cncc(OC(F)F)c2)sc1N(C)C(=O)OC(C)(C)C [Compound A16] please
-- reply 4

-- ask Another compound: Cc1nc(-c2cncc(C(N)=O)c2)sc1N(C)C(=O)OC(C)(C)C [Compound A8]
-- reply 0

-- ask Entry Cc1nc(-c2cccnc2)sc1N(C)C(=O)NOC(C)(C)C [Compound A45] please
-- reply 2

-- ask Another compound to check: CSc1cncc(-c2nc(C)c(N(C)C(=O)OC(C)(C)C)s2)c1 [Compound A12]
-- reply 1

* * *

# Test system: Triticum aestivium (TRZAW)
# Assay Details: Post-emergence herbicidal activity
# Assay type: in vivo
# Condition Label: post-emergence application, 1000 g/Ha, evaluated after 13 days, scale 0-5
// reported Control of weed species, TRZAW (damage score) per item
Answer using only a numeral; do not append any unit.

Cc1nc(-c2cccnc2)sc1N(C)C(=O)NOC(C)(C)C | 2
COc1cncc(-c2nc(C(F)(F)F)c(N(C)C(=O)OC(C)(C)C)s2)c1 | 1
CN(C(=O)OC(C)(C)C)c1sc(-c2cccnc2)nc1F | 0
CN(C(=O)OC(C)(C)C)c1sc(-c2cncc(F)c2)nc1Br | 0
CCOC(=O)N(C)c1sc(-c2cccnc2)nc1C | 1
Cc1nc(-c2cncc(C(F)(F)F)c2)sc1N(C)C(=O)OC(C)(C)C | 1
Cc1nc(-c2cccnc2)sc1N(C)C(=O)OC(C)(C)C | 0
Cc1nc(-c2cncc(OC(F)F)c2)sc1N(C)C(=O)OC(C)(C)C | 4
CN(C(=O)OC(C)(C)C)c1sc(-c2cncc(Cl)c2)nc1C(F)(F)F | 2
Cc1nc(-c2cncc(C(N)=O)c2)sc1N(C)C(=O)OC(C)(C)C | 2

-- ask Find Control of weed species, TRZAW (damage score) (Triticum aestivium (TRZAW)) for the entry Cc1nc(-c2cncnc2)sc1N(C)C(=O)OC(C)(C)C
-- reply 1

* * *

# Tested on: Echinochloa crus-galli (ECHCG)
# Assay Details: Pre-emergence herbicidal activity
# Type: in vivo
# Condition Label: pre-emergence application, 1000 g/Ha, evaluated after 13 days, scale 0-5; Table 5
Measured Control of weed species, ECHCG (damage score), listed per entry.
Reply briefly: the number, and no unit.

In the examples that follow, each entry is paired with its recorded Control of weed species, ECHCG (damage score).
Cc1nc(-c2cccnc2)sc1N(C)C(=O)NOC(C)(C)C [Compound A45] | 3
CN(C(=O)OC(C)(C)C)c1sc(-c2cncc(F)c2)nc1Br [Compound A51] | 1
Cc1nc(-c2cncc(OCc3ccccc3)c2)sc1N(C)C(=O)OC(C)(C)C [Compound A14] | 0

Then this compound:
-- ask Entry Cc1nc(-c2cncc(C(N)=O)c2)sc1N(C)C(=O)OC(C)(C)C [Compound A8] : reported Control of weed species, ECHCG (damage score) = ?
-- reply 0

* * *

# System: Oryza sativa (ORYSA)
# Assay Details: Pre-emergence herbicidal activity
# Assay type: in vivo
# Condition Label: pre-emergence application, 1000 g/Ha, evaluated after 13 days, scale 0-5
Reported Metric: Control of weed species, ORYSA (damage score)
Format: numeric value only, no unit, no commentary.

Check out these entries, answers already filled in.
Cc1nc(-c2cccnc2)sc1N(C)C(=O)SC(C)(C)C [Compound A22] | 0
Cc1nc(-c2cncc(OCc3ccccc3)c2)sc1N(C)C(=O)OC(C)(C)C [Compound A14] | 0
Cc1nc(-c2cncc(O)c2)sc1N(C)C(=O)OC(C)(C)C [Compound A15] | 0
COc1cncc(-c2nc(C)c(N(C)C(=O)OC(C)(C)C)s2)c1 [Compound A6] | 1

Turning now to a further molecule:
-- ask Fill in the blank: the reported Control of weed species, ORYSA (damage score) of CCN(C(=O)OC(C)(C)C)c1sc(-c2cccnc2)nc1C [Compound A17] is ____.
-- reply 0
